- TARGET OR TEST SYSTEM: PBP3 from Escherichia coli (K-12) (Escherichia coli)
- Sequence (P0AD68 1-577): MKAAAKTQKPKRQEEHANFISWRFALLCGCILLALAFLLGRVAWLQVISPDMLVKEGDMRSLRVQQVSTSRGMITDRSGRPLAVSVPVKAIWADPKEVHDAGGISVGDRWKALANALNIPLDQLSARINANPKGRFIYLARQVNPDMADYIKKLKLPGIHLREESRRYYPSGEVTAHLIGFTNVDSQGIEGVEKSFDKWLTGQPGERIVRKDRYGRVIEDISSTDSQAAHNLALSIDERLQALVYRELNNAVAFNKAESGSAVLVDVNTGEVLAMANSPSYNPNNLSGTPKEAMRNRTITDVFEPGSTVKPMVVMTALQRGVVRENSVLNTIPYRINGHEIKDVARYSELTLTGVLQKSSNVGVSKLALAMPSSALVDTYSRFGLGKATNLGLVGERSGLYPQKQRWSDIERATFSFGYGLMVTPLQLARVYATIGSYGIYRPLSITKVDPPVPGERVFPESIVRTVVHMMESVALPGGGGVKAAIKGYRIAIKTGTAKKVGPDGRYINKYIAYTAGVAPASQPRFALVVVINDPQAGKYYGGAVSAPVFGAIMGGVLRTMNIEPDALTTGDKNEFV
- ASSAY TEXT: Bocillin-FL fluorescence polarization competition binding, E. coli PBP3
- Excerpt: To determine the ability of boronic acid-based test PBP inhibitors to bind Penicillin Binding Proteins (PBPs), Bocillin-FL (fluorescently-labeled penicillin V; ThermoFisher Scientific) was used in a fluorescence polarization (FP) competition binding assay to assess inhibitor binding to PBP3 from Escherichia coli (K-12), PBP3 from Pseudomonas aeruginosa (PAO1), PBP1a and PBP3 from Acinetobacter baumannii (ATCC 19606), and PBP2 from Neisseria gonorrhoeae (FA19). […]
For each of the compounds below, state its EC50.

Ask: Provide the reported EC50 (system: PBP3 from Escherichia coli (K-12) (Escherichia coli)) for O=C(CN1CCN(C(=O)NC(C(=O)N[C@H]2Cc3ccc(F)c(C(=O)O)c3OB2O)c2cc(F)c(O)c(O)c2Cl)C(=O)C1=O)Nc1ccccc1 (some centres unmarked)
Result: < 10 µM

Ask: Provide the reported EC50 (system: PBP3 from Escherichia coli (K-12) (Escherichia coli)) for O=C(O)c1c(F)ccc2c1OB(O)[C@@H](NC(=O)C(NC(=O)N1CCN(C3CCN(S(=O)(=O)c4ccc(O)cc4)CC3)C(=O)C1=O)c1cc(F)c(O)c(O)c1Cl)C2 (some centres unmarked)
Result: < 10 µM

Ask: Provide the reported EC50 (system: PBP3 from Escherichia coli (K-12) (Escherichia coli)) for O=C(NCCCN1CCN(C(=O)NC(C(=O)N[C@H]2Cc3ccc(F)c(C(=O)O)c3OB2O)c2cc(F)c(O)c(O)c2Cl)C(=O)C1=O)c1cccc(O)c1 (some centres unmarked)
Result: < 10 µM

Ask: Provide the reported EC50 (system: PBP3 from Escherichia coli (K-12) (Escherichia coli)) for O=C(O)c1c(F)ccc2c1OB(O)[C@@H](NC(=O)C(NC(=O)N1CCN(CCCNC(=O)[C@@H]3CCCN3)C(=O)C1=O)c1cc(F)c(O)c(O)c1Cl)C2 (some centres unmarked)
Result: 10 to 50 µM

Ask: Provide the reported EC50 (system: PBP3 from Escherichia coli (K-12) (Escherichia coli)) for O=C(N[C@@H](C(=O)N[C@H]1Cc2cccc(C(=O)O)c2OB1O)c1ccc(P(=O)(O)O)cc1)c1ccc(C(F)(F)F)cn1 (single isomer, unassigned)
Result: < 10 µM

Ask: Provide the reported EC50 (system: PBP3 from Escherichia coli (K-12) (Escherichia coli)) for N#Cc1ccnc(C(=O)NC(C(=O)N[C@H]2Cc3cccc(C(=O)O)c3OB2O)c2ccc(P(=O)(O)O)cc2)c1 (some centres unmarked)
Result: 50 to 250 µM

Ask: Provide the reported EC50 (system: PBP3 from Escherichia coli (K-12) (Escherichia coli)) for O=C(NCCCN1CCN(C(=O)NC(C(=O)N[C@H]2Cc3ccc(F)c(C(=O)O)c3OB2O)c2cc(F)c(O)c(O)c2Cl)C(=O)C1=O)c1ccc(F)c(O)c1Cl (some centres unmarked)
Result: < 10 µM

Ask: Provide the reported EC50 (system: PBP3 from Escherichia coli (K-12) (Escherichia coli)) for O=C(NCCN1CCN(C(=O)NC(C(=O)N[C@H]2Cc3ccc(F)c(C(=O)O)c3OB2O)c2cc(F)c(O)c(O)c2Cl)C(=O)C1=O)c1cccc(O)c1 (some centres unmarked)
Result: < 10 µM

Ask: Provide the reported EC50 (system: PBP3 from Escherichia coli (K-12) (Escherichia coli)) for O=C(NCCCN1CCN(C(=O)NC(C(=O)N[C@H]2Cc3ccc(F)c(C(=O)O)c3OB2O)c2cc(F)c(O)c(O)c2Cl)C(=O)C1=O)c1cc(O)ccc1F (some centres unmarked)
Result: < 10 µM

Ask: Provide the reported EC50 (system: PBP3 from Escherichia coli (K-12) (Escherichia coli)) for O=C(O)c1cccc2c1OB(O)[C@@H](NC(=O)C(NC(=O)c1ccc[nH]c1=O)c1ccc(P(=O)(O)O)cc1)C2 (some centres unmarked)
Result: 50 to 250 µM

Ask: Provide the reported EC50 (system: PBP3 from Escherichia coli (K-12) (Escherichia coli)) for Nc1ncc(C(=O)N[C@@H](C(=O)N[C@H]2Cc3cccc(C(=O)O)c3OB2O)c2ccc(P(=O)(O)O)cc2)s1 (racemic)
Result: 50 to 250 µM

Ask: Provide the reported EC50 (system: PBP3 from Escherichia coli (K-12) (Escherichia coli)) for O=C(O)c1cccc2c1OB(O)[C@@H](NC(=O)[C@H](NC(=O)c1cnc3sccn3c1=O)c1ccc(P(=O)(O)O)cc1)C2 (single isomer, unassigned)
Result: < 10 µM

Ask: Provide the reported EC50 (system: PBP3 from Escherichia coli (K-12) (Escherichia coli)) for "CN(CCN1CCN(C(=O)N[C@@H](C(=O)N[C@H]2Cc3ccc(F)c(C(=O)O)c3OB2O)c2cc(F)c(O)c(O)c2Cl)C(=O)C1=O)Cc1ccc(C(N)=O)cc1"
Result: < 10 µM

Ask: Provide the reported EC50 (system: PBP3 from Escherichia coli (K-12) (Escherichia coli)) for O=C(O)c1c(F)ccc2c1OB(O)[C@@H](NC(=O)C(NC(=O)N1CCN(S(=O)(=O)CCCNC(=O)[C@@H]3CCCN3)C1=O)c1cc(F)c(O)c(O)c1Cl)C2 (some centres unmarked)
Result: 10 to 50 µM

Ask: Provide the reported EC50 (system: PBP3 from Escherichia coli (K-12) (Escherichia coli)) for O=C(O)c1c(F)ccc2c1OB(O)[C@@H](NC(=O)C(NC(=O)N1CCN(Cc3ccc(O)c(O)c3Cl)C(=O)C1=O)c1cc(F)c(O)c(O)c1Cl)C2 (some centres unmarked)
Result: < 10 µM

Ask: Provide the reported EC50 (system: PBP3 from Escherichia coli (K-12) (Escherichia coli)) for O=C(O)c1cccc2c1OB(O)[C@@H](NC(=O)C(NC(=O)C(F)(F)F)c1ccc(P(=O)(O)O)cc1)C2 (some centres unmarked)
Result: > 250 µM

Ask: Provide the reported EC50 (system: PBP3 from Escherichia coli (K-12) (Escherichia coli)) for O=C(NCCCN1CCN(C(=O)NC(C(=O)N[C@H]2Cc3ccc(F)c(C(=O)O)c3OB2O)c2cc(F)c(O)c(O)c2Cl)C(=O)C1=O)c1cccc(O)c1F (some centres unmarked)
Result: < 10 µM

Ask: Provide the reported EC50 (system: PBP3 from Escherichia coli (K-12) (Escherichia coli)) for CCN1CCN(C(=O)NC(C(=O)N[C@H]2Cc3cccc(C(=O)O)c3OB2O)c2ccc(S(=O)(=O)O)cc2)C(=O)C1=O (some centres unmarked)
Result: 10 to 50 µM

Ask: Provide the reported EC50 (system: PBP3 from Escherichia coli (K-12) (Escherichia coli)) for CCN1CCN(C(=O)NC(C(=O)N[C@H]2Cc3cccc(C(=O)O)c3OB2O)c2ccc(P(=O)(O)O)c(O)c2)C(=O)C1=O (some centres unmarked)
Result: < 10 µM

Ask: Provide the reported EC50 (system: PBP3 from Escherichia coli (K-12) (Escherichia coli)) for CN(CCN1CCN(C(=O)NC(C(=O)N[C@H]2Cc3ccc(F)c(C(=O)O)c3OB2O)c2cc(F)c(O)c(O)c2Cl)C(=O)C1=O)S(=O)(=O)c1cccc(C(N)=O)c1 (some centres unmarked)
Result: < 10 µM

Ask: Provide the reported EC50 (system: PBP3 from Escherichia coli (K-12) (Escherichia coli)) for CN(CCN1CCN(C(=O)NC(C(=O)N[C@H]2Cc3ccc(F)c(C(=O)O)c3OB2O)c2cc(F)c(O)c(O)c2Cl)C(=O)C1=O)S(=O)(=O)c1ccc(C(N)=O)cc1 (some centres unmarked)
Result: < 10 µM

Ask: Provide the reported EC50 (system: PBP3 from Escherichia coli (K-12) (Escherichia coli)) for O=C(NCCCN1CCN(C(=O)NC(C(=O)N[C@H]2Cc3ccc(F)c(C(=O)O)c3OB2O)c2cc(F)c(O)c(O)c2Cl)C1=O)c1cccnc1 (some centres unmarked)
Result: 10 to 50 µM

Ask: Provide the reported EC50 (system: PBP3 from Escherichia coli (K-12) (Escherichia coli)) for O=C(NCCCN1CCN(C(=O)NC(C(=O)N[C@H]2Cc3ccc(F)c(C(=O)O)c3OB2O)c2cc(F)c(O)c(O)c2Cl)C(=O)C1=O)c1ccc(O)cc1 (some centres unmarked)
Result: < 10 µM
